test system: TM3; experiment: Induction of testosterone production in mouse TM3 cells assessed as increase in testosterone level at 20 uM measured after 24 hrs by ELISA relative to control; format: functional
Property: Activity (%)
Answer format: numeric, % implied, no suffix.

Req: For the compound shown here, COc1ccc2c(c1)[C@@]1(C)Cc3cnc(C)nc3C(C)(C)C1C=C2 (mixture of isomers) , give the reported Activity.
Resp: 129.8

Req: Would you mind doing CCCOc1ccc2c(c1)[C@@]1(C)Cc3cnc(C)nc3C(C)(C)C1CC2 (mixture of isomers) as well?
Resp: 113.2

Req: Try this compound next: COc1ccc2c(c1)[C@@]1(C)Cc3c(n[nH]c3C(=O)O)C(C)(C)C1CC2 (stereo partly drawn)
Resp: 128.2

Req: And then C#CCOc1ccc2c(c1)[C@@]1(C)Cc3cnc(C)nc3C(C)(C)C1CC2 (mixture of isomers) , what is it?
Resp: 120.5

Req: Same question, COc1cc2c(cc1C(=O)NO)CCC1C(C)(C)c3nc(C)ncc3C[C@]21C (mixture of isomers) this time
Resp: 189.5

Req: Same thing, different compound: CCCCCNC(=O)c1cc2c(cc1OC)[C@@]1(C)Cc3cnc(C)nc3C(C)(C)C1CC2 (mixture of isomers)
Resp: 171.9

Req: Same again, this time with COc1cc2c(cc1Br)CCC1C(C)(C)c3nc(C)ncc3C[C@]21C (mixture of isomers)
Resp: 119.2

Req: Same read-out for COc1cc2c(cc1C(=O)NN)CCC1C(C)(C)c3nc(C)ncc3C[C@]21C (mixture of isomers) ?
Resp: 130
